# TESTED TARGET: human NAMPT (Homo sapiens)
# Sequence (P43490 whole entry): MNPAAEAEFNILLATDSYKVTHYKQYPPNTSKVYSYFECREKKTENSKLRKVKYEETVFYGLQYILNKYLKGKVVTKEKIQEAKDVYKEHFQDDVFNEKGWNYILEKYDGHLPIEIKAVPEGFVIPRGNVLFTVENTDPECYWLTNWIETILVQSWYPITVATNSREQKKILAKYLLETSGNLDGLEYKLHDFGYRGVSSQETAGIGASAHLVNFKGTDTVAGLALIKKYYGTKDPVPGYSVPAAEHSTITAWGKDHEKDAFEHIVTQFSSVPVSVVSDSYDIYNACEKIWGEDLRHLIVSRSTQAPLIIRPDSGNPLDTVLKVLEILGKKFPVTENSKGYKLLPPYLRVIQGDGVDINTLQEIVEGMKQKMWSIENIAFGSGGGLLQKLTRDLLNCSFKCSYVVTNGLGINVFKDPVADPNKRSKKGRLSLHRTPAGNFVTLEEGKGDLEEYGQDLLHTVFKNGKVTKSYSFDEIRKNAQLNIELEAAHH
# PROTOCOL NOTES: Human recombinant enzyme assay (NMN fluorescence biochemical assay, activation of NAMPT)
# TEST SETTINGS: Table A; human recombinant NAMPT, NMN formation, 60 min; read-out: EC50 Human
Listing: log10(EC50) of selected compounds
Heads up, the numbers here are log10 of EC50 in µM units.

Example results:
INSERT INTO results (compound, tested_target, assay_result) VALUES
  ('O=C(NCCCCCNC(=O)c1cccnc1)NCc1ccc(Cl)cc1 [Compound 277]', 'human NAMPT (Homo sapiens)', 0.84),
  ('COc1ccc(CNC(=O)NC2CC3(C2)CC(C(=O)N2CCS(=O)(=O)CC2)C3)cc1 (stereo not drawn) [Compound 232]', 'human NAMPT (Homo sapiens)', 1.58),
  ('NC(=O)c1ccc(CNC(=O)N[C@H]2C[C@H](C(=O)NCc3ccccc3)C2)cc1 [Compound 21]', 'human NAMPT (Homo sapiens)', 1.65),
  ('CN(C(=O)CCCCCNC(=O)NCc1ccncc1)c1ccccc1F [Compound 286]', 'human NAMPT (Homo sapiens)', 0.30),
  ('O=C(NCc1ccc(Cl)cc1)NC1CC2(C1)CC(OCc1ccncc1)C2 (stereo not drawn) [Compound 348]', 'human NAMPT (Homo sapiens)', 0.77),
  ('COc1ccc(CNC(=O)NC2CC3(C2)CC(C(=O)NCc2ccccc2)C3)cc1 (stereo not drawn) [Compound 68]', 'human NAMPT (Homo sapiens)', 1.66);

COc1ccc(CNC(=O)NCCCCCC(=O)N(C)c2ccccc2F)cc1 [Compound 282] yielded log10(EC50) of 0.59

Reported log10(EC50) ( CN(C(=O)CCCCCNC(=O)NCc1ccc(Cl)cc1)c1ccncc1 [Compound 265] ) = 0.20

Reported log10(EC50) of O=C(NCc1ccc(Cl)cc1)NC1CC2(C1)CC(Oc1ccncc1)C2 (stereo not drawn) [Compound 341] : 0.30

For COc1ccc(CNC(=O)NC2CC3(C2)CC(C(=O)NCCc2cn[nH]c2)C3)cc1 (stereo not drawn) [Compound 75] the compound record lists log10(EC50) as 1.62

Value of measured log10(EC50) for the entry COc1ccc(CNC(=O)NCCCCCNC(=O)OC(C)(C)C)cc1 [Compound 36] : 1.55
